# Tested on: DFO2036
# EXPERIMENT: qHTS profiling for inhibitors of Plasmodium falciparum proliferation (AID 504749); also: nearly all actives have a fitted effect of over 60% in size
# CONDITION CONTEXT: P. falciparum in erythrocytes, SYBR Green DNA, 72 h; series mostly up to 28.7 µM
Results filed as inconclusive are left out. The source made the active and inactive calls. Calls follow the shape of the dose curve; as a rule, active = well fitted inhibition curve with a large enough effect; inconclusive = small, poorly fitted or top-dose-only effect; inactive = flat fitted curve, though single readings scatter.
Labels: active, inactive

{"columns": ["INPUT SMILES", "ASSIGNED LABEL"],
 "data": [
  ["C(=C/c1ccccc1)/CN1CCN(C(c2ccccc2)c2ccccc2)CC1", "inactive"],
  ["CN(C)[C@H]1C(=O)C(C(=O)NCN2CCCC2)=C(O)[C@]2(O)C(=O)C3=C(O)c4c(O)cccc4[C@](C)(O)[C@H]3C[C@H]12", "inactive"],
  ["Cc1cn([C@H]2C[C@H](N=[N+]=[N-])[C@H](CO)O2)c(=O)[nH]c1=O", "inactive"],
  ["C=C1CC[C@H](O)C/C1=C/C=C1\\CCC[C@]2(C)[C@@H]([C@H](C)CCCC(C)C)CC[C@@H]12", "inactive"],
  ["Cc1onc(-c2c(F)cccc2Cl)c1C(=O)N[C@@H]1C(=O)N2[C@H]1SC(C)(C)[C@H]2C(=O)O", "inactive"],
  ["CC(C)(C)NC[C@@H](O)c1ccc(O)c(CO)n1", "inactive"],
  ["NS(=O)(=O)c1cc2c(cc1Cl)N[C@H](Cc1ccccc1)NS2(=O)=O", "inactive"],
  ["O=C(O)[C@@H](S)[C@H](S)C(=O)O", "active"]
]}

Reference source for all entries: PubChem BioAssay (NCATS)
